test system: guinea-pigs left atria; assay: Guinea pig left atria test: force of atrial contraction; conditions: Cavia porcellus; concentration producing an inotropic response half that of the maximal response produced by the test compound; read-out: ED₅₀
parameterMeasured: EC50 (µM)
Numbers only here, please. The scale is µM.

In: Give me measured EC50, please, for this compound: O=C(COc1ccc(C2=NNC(=O)CC2)cc1Cl)NCCNC[C@H](O)COc1ccccc1 [Example 19]
Out: 9
